protocol_description: Integrated PopPK analysis
Assay type: in vivo, human (Japanese pediatric patients and adult population)
reported_conditions: human, plasma, oral
quantity_kind: Vd/F (L)
Express your answer in L, writing the number without its unit.

Input: // returns reported Vd/F for input Cc1nc(-c2ccc(OCC(C)C)c(C#N)c2)sc1C(=O)O
Output: 19.4
